# GI50 per record follows
Tested on: GP2D
Assay: Growth inhibition, CyQUANT Direct Cell Proliferation Assay, GP2D
Assay type: cell-based
Details: GP2D cells, 120 to 168 hours

For orientation, consider the following solved cases.
Query block: Item C[C@@H]1CN(c2ccc3c(c2)CN(C2CCC(=O)NC2=O)C3=O)C(=O)N1c1ccccc1 (stereo partly drawn) with GP2D - GI50?
Result block: 100 to 1000 nM

Query block: Item: C[C@@H]1CN(c2ccc3c(c2)CN(C2CCC(=O)NC2=O)C3=O)C(=O)N1c1ccc(C2CC2)cc1 (stereo partly drawn)
Result block: 100 to 1000 nM

Query block: Could you do the same for O=C1CCC(N2Cc3cc(N4CCN(c5ccc(C6CC6)cc5)C4=O)ccc3C2=O)C(=O)N1 (stereo not drawn) , please?
Result block: 100 to 1000 nM

Query block: Could you do the same for Cc1ccc(N2CCN(c3ccc4c(c3)CN(C3CCC(=O)NC3=O)C4=O)C2=O)cn1 (stereo not drawn) , please?
Result block: 100 to 1000 nM

Query block: Next up: Cc1ccc(N2CCN(c3ccc4c(c3)CN(C3CCC(=O)NC3=O)C4=O)C2=O)cc1 (stereo not drawn)
Result block: 100 to 1000 nM

Query block: Now the molecule O=C1CCC(N2Cc3cc(N4CCN(c5ccc(C(F)F)nc5)C4=O)ccc3C2=O)C(=O)N1 (stereo not drawn)
Result block: 100 to 1000 nM

Next:
Query block: Form field: GI50 recorded for O=C1CCC(N2Cc3cc(N4CCN(c5ccc(C(F)(F)F)nc5)C4=O)ccc3C2=O)C(=O)N1 (stereo not drawn) with GP2D (enter value)
Result block: 100 to 1000 nM

Query block: Now consider C[C@@H]1CN(c2ccc3c(c2)CN(C2CCC(=O)NC2=O)C3=O)C(=O)N1c1ccc(C2CC2)nc1 (stereo partly drawn) and answer again.
Result block: > 1000 nM

Query block: Similarly, O=C1CCC(N2Cc3cc(N4CCN(c5ccccc5)C4=O)ccc3C2=O)C(=O)N1 (stereo not drawn) ?
Result block: > 1000 nM

---

# Lookup of reported DC50 keyed by entry
Biological target: CK1α (Homo sapiens, UniProt P48729+Q96SW2)
Construct: HEK293 clonal lines with CRISPR KI HiBiT tag on CSNK1A1; host or cells: HEK293 clonal line, CRISPR knock-in HiBiT at the CSNK1A1 locus, stably expressing LgBiT
Sequence (P48729 whole entry, one chain of several): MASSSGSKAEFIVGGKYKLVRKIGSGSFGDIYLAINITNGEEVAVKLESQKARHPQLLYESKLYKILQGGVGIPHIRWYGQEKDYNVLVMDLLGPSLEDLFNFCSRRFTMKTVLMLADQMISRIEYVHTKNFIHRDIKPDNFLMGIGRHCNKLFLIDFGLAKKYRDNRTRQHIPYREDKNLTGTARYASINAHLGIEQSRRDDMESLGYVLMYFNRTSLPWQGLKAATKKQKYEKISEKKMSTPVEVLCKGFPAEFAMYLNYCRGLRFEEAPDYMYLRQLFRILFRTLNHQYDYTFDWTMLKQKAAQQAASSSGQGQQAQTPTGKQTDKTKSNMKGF
Assay: CK1α NanoBit Assay (HiBiT-tagged CSNK1A1 in HEK293 cells, luminescence)
Format: cell-based
Conditions: 24 h

Use these answered entries as a reference point.
Query block: Data request, read-out DC50, for Cc1ccccc1N1C(=O)N(c2ccc3c(c2)CN(C2CCC(=O)NC2=O)C3=O)C[C@H]1C (stereo partly shown) [Compound 167]
Result block: 0.1 to 1 µM

Query block: Also need Cc1ccc(N2CCN(c3ccc4c(c3)CN(C3CCC(=O)NC3=O)C4=O)C2=O)nc1 (stereo not shown) [Compound 141] , thanks.
Result block: ≤ 0.1 µM

Query block: Please do the same for COCc1cccc(N2CCN(c3ccc4c(c3)CN(C3CCC(=O)NC3=O)C4=O)C2=O)c1 (stereo not shown) [Compound 136] as well.
Result block: ≤ 0.1 µM

Query block: Same thing, different molecule: Cc1ccc(N2C(=O)N(c3ccc4c(c3)CN(C3CCC(=O)NC3=O)C4=O)CC2C)cn1 (stereo not shown) [Compound 122]
Result block: 0.1 to 1 µM

Query block: What about this molecule? CC1CN(c2ccccc2)C(=O)N1c1ccc2c(c1)CN(C1CCC(=O)NC1=O)C2=O (stereo not shown) [Compound 117]
Result block: 0.1 to 1 µM

---
Query block: Endpoint output: DC50 of O=C1CCC(N2Cc3cc(N4CCN(C5CC6(CCC6)C5)C4=O)ccc3C2=O)C(=O)N1 (stereo not shown) [Compound 153] . Value?
Result block: 0.1 to 1 µM

Query block: Field entry: Cc1ccc(N2C(=O)N(c3ccc4c(c3)CN(C3CCC(=O)NC3=O)C4=O)C[C@@H]2C(F)F)cc1 (stereo partly shown) [Compound 158]
Result block: 0.1 to 1 µM

Query block: How about this molecule: C[C@@H]1CN(c2ccc3c(c2)CN(C2CCC(=O)NC2=O)C3=O)C(=O)N1c1ccncn1 (stereo partly shown) [Compound 180]
Result block: > 1 µM

---

System: CW2
Assay: Growth inhibition, CyQUANT Direct Cell Proliferation Assay, CW2
Assay type: cell-based
Details: Homo sapiens, CW-2; CW2 cells, 120 to 168 hours
readout: GI50

Query block: Fill in the blank: the reported GI50 of O=C1CCC(N2Cc3cc(N4CCN(c5ccccc5)C4=O)ccc3C2=O)C(=O)N1 (stereo not drawn) [Compound 101] is ____.
Result block: 100 to 1000 nM

---
Query block: # query: GI50 of entry Cc1ccc(N2CCN(c3ccc4c(c3)CN(C3CCC(=O)NC3=O)C4=O)C2=O)cn1 (stereo not drawn) [Compound 104]
Result block: 100 to 1000 nM

Query block: // repeat for Cc1ccc(N2CCN(c3ccc4c(c3)CN(C3CCC(=O)NC3=O)C4=O)C2=O)cc1 (stereo not drawn) [Compound 111] and report
Result block: ≤ 100 nM

Query block: # repeat for O=C1CCC(N2Cc3cc(N4CCN(c5ccc(C6CC6)cc5)C4=O)ccc3C2=O)C(=O)N1 (stereo not drawn) [Compound 123]
Result block: ≤ 100 nM

Query block: Now try O=C1CCC(N2Cc3cc(N4CCN(c5ccc(C(F)F)nc5)C4=O)ccc3C2=O)C(=O)N1 (stereo not drawn) [Compound 124] .
Result block: ≤ 100 nM

Query block: And C[C@@H]1CN(c2ccc3c(c2)CN(C2CCC(=O)NC2=O)C3=O)C(=O)N1c1ccc(C2CC2)nc1 (stereo partly drawn) [Compound 137] ?
Result block: 100 to 1000 nM

Query block: Then this molecule: O=C1CCC(N2Cc3cc(N4CCN(c5ccc(C(F)(F)F)nc5)C4=O)ccc3C2=O)C(=O)N1 (stereo not drawn) [Compound 126]
Result block: ≤ 100 nM

Query block: Follow-up entry: C[C@@H]1CN(c2ccc3c(c2)CN(C2CCC(=O)NC2=O)C3=O)C(=O)N1c1ccccc1 (stereo partly drawn) [Compound 107]
Result block: ≤ 100 nM

Query block: C[C@@H]1CN(c2ccc3c(c2)CN(C2CCC(=O)NC2=O)C3=O)C(=O)N1c1ccc(C2CC2)cc1 (stereo partly drawn) [Compound 125] , same question.
Result block: ≤ 100 nM

---

Biological target: CRBN/DDB1 (Homo sapiens)
Sequence (Q96SW2 whole entry): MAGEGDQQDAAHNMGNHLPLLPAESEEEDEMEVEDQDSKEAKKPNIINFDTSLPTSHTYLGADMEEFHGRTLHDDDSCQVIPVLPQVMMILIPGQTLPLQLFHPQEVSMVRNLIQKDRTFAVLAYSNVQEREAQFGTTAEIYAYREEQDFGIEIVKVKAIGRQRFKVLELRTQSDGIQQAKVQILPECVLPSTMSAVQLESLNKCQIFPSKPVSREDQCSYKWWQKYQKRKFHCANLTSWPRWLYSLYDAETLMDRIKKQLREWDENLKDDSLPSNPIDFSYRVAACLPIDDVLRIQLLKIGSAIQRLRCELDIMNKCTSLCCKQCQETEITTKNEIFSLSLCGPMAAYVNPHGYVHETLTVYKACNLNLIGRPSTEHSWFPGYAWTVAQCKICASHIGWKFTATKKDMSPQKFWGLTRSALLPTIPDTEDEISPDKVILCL
Sequence (Q16531 whole entry partner): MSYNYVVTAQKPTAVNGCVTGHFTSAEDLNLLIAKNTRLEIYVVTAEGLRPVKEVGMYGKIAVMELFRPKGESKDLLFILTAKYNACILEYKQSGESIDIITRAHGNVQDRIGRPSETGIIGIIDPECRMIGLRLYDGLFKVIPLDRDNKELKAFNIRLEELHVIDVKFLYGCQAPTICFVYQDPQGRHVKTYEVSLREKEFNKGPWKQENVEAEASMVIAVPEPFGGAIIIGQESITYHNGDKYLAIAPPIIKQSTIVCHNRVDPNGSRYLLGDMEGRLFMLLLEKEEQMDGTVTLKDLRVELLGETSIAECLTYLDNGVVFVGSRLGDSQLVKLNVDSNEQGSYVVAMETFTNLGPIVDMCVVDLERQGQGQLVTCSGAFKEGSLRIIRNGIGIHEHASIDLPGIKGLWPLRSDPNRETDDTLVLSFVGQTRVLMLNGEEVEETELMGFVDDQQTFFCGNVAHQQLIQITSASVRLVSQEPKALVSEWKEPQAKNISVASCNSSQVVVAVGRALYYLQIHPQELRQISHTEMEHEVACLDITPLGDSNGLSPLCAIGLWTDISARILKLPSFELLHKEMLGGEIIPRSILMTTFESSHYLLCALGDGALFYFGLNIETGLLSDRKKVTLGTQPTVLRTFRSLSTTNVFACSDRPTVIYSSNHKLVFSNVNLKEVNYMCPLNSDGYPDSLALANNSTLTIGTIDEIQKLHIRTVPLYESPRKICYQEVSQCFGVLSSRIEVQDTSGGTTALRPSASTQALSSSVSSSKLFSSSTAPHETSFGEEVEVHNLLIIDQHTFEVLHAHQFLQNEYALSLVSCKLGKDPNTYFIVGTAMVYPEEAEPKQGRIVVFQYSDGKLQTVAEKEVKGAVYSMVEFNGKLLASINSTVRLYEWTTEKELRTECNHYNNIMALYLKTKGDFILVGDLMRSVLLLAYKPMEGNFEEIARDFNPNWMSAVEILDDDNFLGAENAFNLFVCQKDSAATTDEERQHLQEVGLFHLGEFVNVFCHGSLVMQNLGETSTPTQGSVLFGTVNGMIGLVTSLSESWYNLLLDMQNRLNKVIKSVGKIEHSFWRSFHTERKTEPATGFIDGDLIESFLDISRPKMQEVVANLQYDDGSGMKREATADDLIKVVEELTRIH
Test: HTRF binding assay (displacement of Cy5-thalidomide probe from CRBN/DDB1)
Conditions: CRBN/DDB1 2.5 nM, Cy5-Thalidomide 100 nM, 30 min; geometric mean; read-out: HTRF_Thali_Disp_DR_geo_IC50
readout: IC50

Field: example entries. Status: answers known.
Query block: Could you tell me which IC50 is on file for O=C1CCC(N2Cc3cc(N4CCN(c5ccc(C(F)F)nc5)C4=O)ccc3C2=O)C(=O)N1 (stereo not shown) ?
Result block: 100 to 1000 nM

Query block: Entry to check: O=C1CCC(N2Cc3cc(N4CCN(c5ccc(C6CCC6)cc5)C4=O)ccc3C2=O)C(=O)N1 (stereo not shown)
Result block: > 1000 nM

Query block: Entry CN1CC(c2ccc(N3CCN(c4ccc5c(c4)CN(C4CCC(=O)NC4=O)C5=O)C3=O)cc2)C1 (stereo not shown) please
Result block: ≤ 100 nM

Query block: Query COCc1ccc(N2C(=O)N(c3ccc4c(c3)CN(C3CCC(=O)NC3=O)C4=O)C[C@H]2C)cc1 (stereo partly shown) next
Result block: 100 to 1000 nM

Query block: Same thing, different compound: Cc1ccc(N2C(=O)N(c3ccc4c(c3)CN(C3CCC(=O)NC3=O)C4=O)C[C@@H]2C(F)F)cc1 (stereo partly shown)
Result block: 100 to 1000 nM

More entries:
Query block: Look at this compound and give its reported IC50. O=C1CCC(N2Cc3cc(N4CCN(c5cccc6nc[nH]c56)C4=O)ccc3C2=O)C(=O)N1 (stereo not shown)
Result block: > 1000 nM

Query block: Query CN1Cc2cccc(N3CCN(c4ccc5c(c4)CN(C4CCC(=O)NC4=O)C5=O)C3=O)c2C1 (stereo not shown) next
Result block: ≤ 100 nM

---

Below, each entry is listed alongside its reported DC50.
Target: CK1α (Homo sapiens, UniProt P48729+Q96SW2)
Construct: HEK293 clonal lines with CRISPR KI HiBiT tag on CSNK1A1; host or cells: HEK293 clonal line, CRISPR knock-in HiBiT at the CSNK1A1 locus, stably expressing LgBiT
Experiment: CK1α NanoBit Assay (HiBiT-tagged CSNK1A1 in HEK293 cells, luminescence)
Type: cell-based
Conditions: 24 h

Some compounds with recorded DC50:
Query block: What is its DC50 for CK1α (Homo sapiens, UniProt P48729+Q96SW2)? Entry: O=C1CCC(N2Cc3cc(N4CCN(C5CCOC5)C4=O)ccc3C2=O)C(=O)N1 (stereo not drawn)
Result block: 0.1 to 1 µM

Query block: Ok, now O=C1CCC(N2Cc3cc(N4CCN(C5CN(c6ccccn6)C5)C4=O)ccc3C2=O)C(=O)N1 (stereo not drawn)
Result block: > 1 µM

Query block: Consider next the compound Cc1ccc(N2CCN(c3ccc4c(c3)CN(C3CCC(=O)NC3=O)C4=O)C2=O)c(C)c1 (stereo not drawn) in the same way.
Result block: ≤ 0.1 µM

Query block: Please do the same for O=C1CCC(N2Cc3cc(N4CCN(C5CC5)C4=O)ccc3C2=O)C(=O)N1 (stereo not drawn) as well.
Result block: 0.1 to 1 µM

Query block: Record: O=C1CCC(N2Cc3cc(N4C[C@@H](C(F)(F)F)N(c5ccccc5)C4=O)ccc3C2=O)C(=O)N1 (stereo partly drawn)
Result block: 0.1 to 1 µM

Query block: What do we get for O=C1CCC(N2Cc3cc(N4CCN(C5C6CCCC65)C4=O)ccc3C2=O)C(=O)N1 (stereo not drawn) ?
Result block: 0.1 to 1 µM

***
Query block: Record C[C@@H]1CN(c2ccc3c(c2)CN(C2CCC(=O)NC2=O)C3=O)C(=O)N1c1ncccn1 (stereo partly drawn) : what is its DC50 with CK1α (Homo sapiens, UniProt P48729+Q96SW2)?
Result block: > 1 µM

Query block: O=C1CCC(N2Cc3cc(N4CCN(c5cccc(Cl)c5)C4=O)ccc3C2=O)C(=O)N1 (stereo not drawn) , same question.
Result block: ≤ 0.1 µM

Query block: Repeat for the following compound: COCc1cc(C)ccc1N1CCN(c2ccc3c(c2)CN(C2CCC(=O)NC2=O)C3=O)C1=O (stereo not drawn)
Result block: 0.1 to 1 µM

Query block: Lookup Cc1ccc(N2C(=O)N(c3ccc4c(c3)CN(C3CCC(=O)NC3=O)C4=O)C[C@@H]2C)cc1 (stereo partly drawn)
Result block: ≤ 0.1 µM

Query block: Now the compound C[C@H]1CN(c2ccc3c(c2)CN(C2CCC(=O)NC2=O)C3=O)C(=O)N1c1ccccc1 (stereo partly drawn)
Result block: ≤ 0.1 µM

Query block: Item: O=C1CCC(N2Cc3cc(N4CCN(c5ccc(C(F)(F)F)cc5)C4=O)ccc3C2=O)C(=O)N1 (stereo not drawn)
Result block: ≤ 0.1 µM

Query block: Another compound to check: CN1CCN(c2cccc(N3CCN(c4ccc5c(c4)CN(C4CCC(=O)NC4=O)C5=O)C3=O)c2)CC1 (stereo not drawn)
Result block: 0.1 to 1 µM

Query block: O=C1CCC(N2Cc3cc(N4CCN(c5cccc6c5CCO6)C4=O)ccc3C2=O)C(=O)N1 (stereo not drawn) ?
Result block: ≤ 0.1 µM

Query block: Proceed to O=C1CCC(N2Cc3cc(N4CCN(c5ccc6[nH]cnc6c5)C4=O)ccc3C2=O)C(=O)N1 (stereo not drawn)
Result block: 0.1 to 1 µM

Query block: Another: O=C1CCC(N2Cc3cc(N4CCN(C5CC6(COC6)C5)C4=O)ccc3C2=O)C(=O)N1 (stereo not drawn)
Result block: 0.1 to 1 µM

Query block: Then COC1(c2ccc(N3CCN(c4ccc5c(c4)CN(C4CCC(=O)NC4=O)C5=O)C3=O)cc2)CC1 (stereo not drawn) ?
Result block: ≤ 0.1 µM

Query block: Moving on to O=C1CCC(N2Cc3cc(N4CCN(c5ccc(C(F)F)cc5)C4=O)ccc3C2=O)C(=O)N1 (stereo not drawn)
Result block: ≤ 0.1 µM

Query block: What do we get for Cc1cc(N2CCN(c3ccc4c(c3)CN(C3CCC(=O)NC3=O)C4=O)C2=O)ccn1 (stereo not drawn) ?
Result block: > 1 µM

Query block: Repeat with O=C1CCC(N2Cc3cc(N4CC5(CC5)N(c5ccccc5)C4=O)ccc3C2=O)C(=O)N1 (stereo not drawn)
Result block: ≤ 0.1 µM

Query block: Check CC1C(C)N(c2ccc3c(c2)CN(C2CCC(=O)NC2=O)C3=O)C(=O)N1c1ccccc1 (stereo not drawn) too.
Result block: > 1 µM
